Tested on: non-tumor-bearing immunocompetent FVB mice
assay: Biodistribution of lanthanide chloride salts LnCl3 (multiplexed ICP-MS)
Type: in vivo
experimental_parameters: 1 h p.i., non-tumor-bearing mice
I'd be grateful if you could share measured Tissue uptake: Spleen for these entries.
One number for each entry, in % ID/g.

Okay, here is my list. What is Tissue uptake: Spleen for each of these?
1. [Cl][Tb]([Cl])[Cl] [[^159Tb]TbCl3]
2. [Cl][Gd]([Cl])[Cl] [[^157Gd]GdCl3]
3. [Cl-].[Cl-].[Cl-].[Eu+3] [[^153Eu]EuCl3]
4. [Cl][Lu]([Cl])[Cl] [[^175Lu]LuCl3]

Given back:
[6.1, 6.3, 6.9, 3.8]

---

Tested on: non-tumor-bearing immunocompetent FVB mice
assay: Biodistribution of lanthanide chloride salts LnCl3 (multiplexed ICP-MS)
Type: in vivo
experimental_parameters: 96 h p.i., non-tumor-bearing mice
Record form. Attribute: Tissue uptake: Pancreas. Fill in for each entry.

Illustrative cases are given below, each with its answer.
[Cl][Gd]([Cl])[Cl] [[^157Gd]GdCl3]	0.53 ± 0.10 % ID/g
[Cl][Tb]([Cl])[Cl] [[^159Tb]TbCl3]	<0.5 % ID/g
[Cl][Lu]([Cl])[Cl] [[^175Lu]LuCl3]	<0.5 % ID/g

Asked: # return recorded Tissue uptake: Pancreas for input [Cl-].[Cl-].[Cl-].[Eu+3] [[^153Eu]EuCl3]
Given back: <0.5 % ID/g

---

assay: Biodistribution of Ln-DOTATATE and Ln-DOTA-LM3 (multiplexed ICP-MS)
experimental_parameters: female, CD1 nude, mouse, salivary glands, intravenous, 0.5 nmol, Tissue uptake: Salivary glands, 1 h p.i., AR42J tumor-bearing mice
Where a SMILES comes first, the peptide text is derived from it. Bridges are numbered along the chain shown (N, C = ends). [ ]: non-standard residue; d: D form. The star is where a group is joined. DOTA = O=C(O)CN1CCN(CC(=O)O)CCN(CC(=O)*)CCN(CC(=O)O)CC1; dPhe(4-NHCONH2) = NC(=O)Nc1ccc(C[C@@H](N)C(=O)O)cc1; Phe(4-Cl) = N[C@@H](Cc1ccc(Cl)cc1)C(=O)O
observed_property: tissue uptake at 1 h

Asked: Provide only the value of recorded tissue uptake at 1 h for C[C@@H](O)[C@@H]1NC(=O)[C@H](CCCCN)NC(=O)[C@@H](Cc2ccc(NC(N)=O)cc2)NC(=O)[C@H](Cc2ccc(O)cc2)NC(=O)[C@H](NC(=O)[C@H](Cc2ccc(Cl)cc2)NC(=O)CN2CCN(CC(=O)O)CCN(CC(=O)O)CCN(CC(=O)O)CC2)CSSC[C@@H](C(=O)N[C@H](Cc2ccc(O)cc2)C(N)=O)NC1=O [[^175Lu]Lu-DOTA-LM3] ({DOTA}-[Phe(4-Cl)][dC]Y[dPhe(4-NHCONH2)]KTC[dY]-NH2; disulfide 2-7 (inferred); C-terminus assumed)
Given back: < 0.5 %ID/g

---

assay: Biodistribution of Ln-DOTATATE and Ln-DOTA-LM3 (multiplexed ICP-MS)
experimental_parameters: female, CD1 nude, mouse, salivary glands, intravenous, 0.5 nmol, Tissue uptake: Salivary glands, 24 h p.i., AR42J tumor-bearing mice
Where a SMILES comes first, the peptide text is derived from it. Bridges are numbered along the chain shown (N, C = ends). [ ]: non-standard residue; d: D form. The star is where a group is joined. DOTA = O=C(O)CN1CCN(CC(=O)O)CCN(CC(=O)*)CCN(CC(=O)O)CC1; dPhe(4-NHCONH2) = NC(=O)Nc1ccc(C[C@@H](N)C(=O)O)cc1; Phe(4-Cl) = N[C@@H](Cc1ccc(Cl)cc1)C(=O)O
observed_property: tissue uptake at 24 h

Asked: Give the reported value of tissue uptake at 24 h for this record: C[C@@H](O)[C@@H]1NC(=O)[C@H](CCCCN)NC(=O)[C@@H](Cc2ccc(NC(N)=O)cc2)NC(=O)[C@H](Cc2ccc(O)cc2)NC(=O)[C@H](NC(=O)[C@H](Cc2ccc(Cl)cc2)NC(=O)CN2CCN(CC(=O)O)CCN(CC(=O)O)CCN(CC(=O)O)CC2)CSSC[C@@H](C(=O)N[C@H](Cc2ccc(O)cc2)C(N)=O)NC1=O [[^175Lu]Lu-DOTA-LM3] ({DOTA}-[Phe(4-Cl)][dC]Y[dPhe(4-NHCONH2)]KTC[dY]-NH2; disulfide 2-7 (inferred); C-terminus assumed)
Given back: < 0.5 %ID/g
